- MEASURED_ON: BTK (Homo sapiens (Human))
- ASSAY_NAME: In Vitro BTK Kinase Assay: BTK-POLYGAT-LS ASSAY
- Type: biochemical
- EXPERIMENTAL_PARAMETERS: fluorescein-labeled polyGAT peptide 100 nM, BTK enzyme 0.25 nM, 30 minutes, TRF
pIC50: −log10 of the molar value.
MEASURED_METRIC: pIC50

Example results:
INSERT INTO measurements (molecule, measured_on, measured_metric, result_value) VALUES
  ('Cc1c([C@@H](C)NC(=O)c2cc(C(C)(C)C)no2)ccc(-c2ncnc(Nc3cnn(C)c3)n2)c1F [Compound 75]', 'BTK (Homo sapiens (Human))', 'pIC50', '> 9.00'),
  ('Cn1ccc(Nc2ncnc(-c3ccc4c(c3)CN(CC(F)(F)F)CC[C@H]4NC(=O)c3nc(C(C)(C)C)co3)n2)n1 [Compound 96]', 'BTK (Homo sapiens (Human))', 'pIC50', '8.00 to 9.00'),
  ('Cn1ccc(Nc2ncnc(-c3ccc(CNC(=O)c4nc(C(C)(C)C)no4)c(C(F)(F)F)c3F)n2)n1 [Compound 20]', 'BTK (Homo sapiens (Human))', 'pIC50', '> 9.00');

As a next step, examine the molecule that follows.
molecule Cc1c(CNC(=O)c2noc(C3(CF)CC3)n2)ccc(-c2ncnc(Nc3cnn(C)c3)n2)c1F [Compound 50] , pIC50 observed: > 9.00

* * *

- MEASURED_ON: BTK (Homo sapiens (Human), UniProt Q06187)
- Sequence (Q06187 whole entry): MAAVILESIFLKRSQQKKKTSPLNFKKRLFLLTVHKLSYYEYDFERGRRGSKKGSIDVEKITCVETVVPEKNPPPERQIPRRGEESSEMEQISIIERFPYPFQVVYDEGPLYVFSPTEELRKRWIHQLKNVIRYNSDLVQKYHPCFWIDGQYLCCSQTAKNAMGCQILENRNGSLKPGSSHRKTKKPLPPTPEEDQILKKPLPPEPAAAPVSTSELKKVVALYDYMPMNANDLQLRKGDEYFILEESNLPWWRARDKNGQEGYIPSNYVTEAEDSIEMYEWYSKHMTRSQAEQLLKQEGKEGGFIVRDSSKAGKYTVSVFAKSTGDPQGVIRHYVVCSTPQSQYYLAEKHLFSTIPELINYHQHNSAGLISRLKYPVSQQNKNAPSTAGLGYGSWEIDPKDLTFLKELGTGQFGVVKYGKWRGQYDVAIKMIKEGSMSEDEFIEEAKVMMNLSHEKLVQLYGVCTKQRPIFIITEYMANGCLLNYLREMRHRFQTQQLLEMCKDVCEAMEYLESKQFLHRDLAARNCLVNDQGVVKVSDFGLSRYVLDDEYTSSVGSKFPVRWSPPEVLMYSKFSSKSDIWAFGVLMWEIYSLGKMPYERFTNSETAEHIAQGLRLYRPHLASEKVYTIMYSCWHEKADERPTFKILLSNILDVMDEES
- ASSAY_NAME: In Vitro BTK Kinase Assay: BTK-POLYGAT-LS ASSAY
- Format: biochemical
- EXPERIMENTAL_PARAMETERS: fluorescein-labeled polyGAT peptide 100 nM, BTK enzyme 0.25 nM, 30 minutes, TRF
# Lookup of reported IC50 keyed by entry

The recorded IC50 for Cn1ccc(Nc2ncnc(-c3ccc4c(c3)CN(C3COC3)CC[C@H]4NC(=O)c3nc(C(C)(C)C)no3)n2)n1 is < 1 nM

For Cc1cc(-c2ncnc(Nc3cnn(C)c3)n2)ccc1CNC(=O)c1coc(C(C)(C)C)n1 the compound record lists IC50 as < 1 nM

Sample Cn1ccc(Nc2ncnc(-c3ccc4c(c3F)CCCC[C@H]4NC(=O)c3coc(C(C)(C)C)n3)n2)n1 ; IC50 observed: < 1 nM

Reported IC50 for Cc1c(CNC(=O)c2noc(C3(C(F)(F)F)CC3)n2)ccc(-c2ncnc(Nc3ccn(C)n3)n2)c1F was 1 to 10 nM

# IC50 (compound: Cc1cc(-c2ncnc(Nc3ccn(C)n3)n2)ccc1CNC(=O)c1cc(C(C)(C)C)on1 ) is 1 to 10 nM

IC50 reported for this compound Cc1cc(-c2ncnc(Nc3ccn(C)n3)n2)ccc1CNC(=O)c1nc(C(C)(C)C)no1 : < 1 nM

Measured IC50, Cc1cc(-c2ncnc(Nc3cnn(C)c3)n2)ccc1CNC(=O)c1noc(C2(CF)CC2)n1 : < 1 nM

Lab book: IC50 of Cn1ccc(Nc2ncnc(-c3ccc(CNC(=O)c4nc(C(C)(C)C)no4)c(C(F)(F)F)c3)n2)n1 noted as 1 to 10 nM

// sample Cc1cc(-c2ncnc(Nc3cnn(C)c3)n2)ccc1CNC(=O)c1nc(C(C)(C)C)co1 , its IC50 was < 1 nM

# IC50 of Cn1ccc(Nc2ncnc(-c3cc4c(cc3F)[C@H](NC(=O)c3noc(C(C)(C)C)n3)CCCC4)n2)n1 = < 1 nM

Entry Cn1cc(Nc2ncnc(-c3ccc(CNC(=O)c4noc(C(C)(C)C)n4)c(C(F)(F)F)c3)n2)cn1 , IC50 reported as < 1 nM

* * *

# IC50 per record follows
- MEASURED_ON: BTK (Homo sapiens (Human))
- ASSAY_NAME: In Vitro PD Assay in Human Whole Blood (pBTK assay)
- Assay type: cell-based
- EXPERIMENTAL_PARAMETERS: human heparinized whole blood, 37° C. for 30 min, total BTK capture and phosphotyrosine detection (ECL)

Below, 6 molecules whose answers are already recorded.
INSERT INTO measurements (smiles_repr, measured_metric, result_value) VALUES
  ('Cn1ccc(Nc2ncnc(-c3ccc(CNC(=O)c4nc(C(C)(C)C)no4)c(Cl)c3F)n2)n1', 'IC50', '500 to 10000 nM'),
  ('Cn1cc(Nc2ncnc(-c3ccc(CNC(=O)c4noc(C(C)(C)C)n4)c(Cl)c3)n2)cn1', 'IC50', '100 to 500 nM'),
  ('Cn1ccc(Nc2ncnc(-c3ccc(CNC(=O)c4noc(C(C)(C)C)n4)c(Cl)c3)n2)n1', 'IC50', '500 to 10000 nM'),
  ('C[C@@H](NC(=O)c1nc(C(C)(C)C)no1)c1ccc(-c2ncnc(Nc3ccn(C)n3)n2)c(F)c1Cl', 'IC50', '500 to 10000 nM'),
  ('Cc1c(CNC(=O)c2noc(C3(C)CC3)n2)ccc(-c2ncnc(Nc3ccn(C)n3)n2)c1F', 'IC50', '100 to 500 nM'),
  ('Cn1cc(Nc2ncnc(-c3ccc(CNC(=O)c4noc(C5(C)CC5)n4)c(Cl)c3F)n2)cn1', 'IC50', '< 100 nM');

API: the following record is the query input.
For record Cn1cc(Nc2ncnc(-c3cc4c(cc3F)[C@H](NC(=O)c3nc(C(C)(C)C)no3)CCCC4)n2)cn1 the listed IC50 is < 100 nM

* * *

- MEASURED_ON: BTK (Homo sapiens (Human), UniProt Q06187)
- ASSAY_NAME: In Vitro BTK Kinase Assay: BTK-POLYGAT-LS ASSAY
- Type: biochemical
- EXPERIMENTAL_PARAMETERS: fluorescein-labeled polyGAT peptide 100 nM, BTK enzyme 0.25 nM, 30 minutes, TRF
pIC50: −log10 of the molar value.
Below, each entry is listed alongside its reported pIC50.

Some entries whose results are on file:
INSERT INTO results (smiles_repr, measured_metric, result_value) VALUES
  ('Cc1c(CNC(=O)c2nn(C(C)(C)C)cc2F)ccc(-c2ncnc(Nc3cnn(C)c3)n2)c1F', 'pIC50', '> 9.00'),
  ('Cn1cc(Nc2ncnc(-c3ccc4c(c3)CN(CC(F)(F)F)CC[C@H]4NC(=O)c3coc(C(C)(C)C)n3)n2)cn1', 'pIC50', '> 9.00'),
  ('Cn1cc(Nc2ncnc(-c3ccc(CNC(=O)c4coc(C(C)(C)C)n4)c(Cl)c3F)n2)cn1', 'pIC50', '> 9.00'),
  ('Cc1cc(-c2ncnc(Nc3cnn(C)c3)n2)ccc1CNC(=O)c1nnc(C(C)(C)C)o1', 'pIC50', '8.00 to 9.00'),
  ('Cc1cc(-c2ncnc(Nc3cnn(C)c3)n2)c(F)cc1CNC(=O)c1nc(C(C)(C)C)no1', 'pIC50', '> 9.00');

pIC50 measured on Cn1ccc(Nc2ncnc(-c3ccc(CNC(=O)c4noc(C(C)(C)C)n4)c(CC(F)F)c3)n2)n1 = 8.00 to 9.00

Record Cc1cc(-c2ncnc(Nc3cnn(C)c3)n2)c(F)cc1CNC(=O)c1cnn(C(C)(C)C)c1 . Reported pIC50: > 9.00

Entry under test: Cc1cc(-c2ncnc(Nc3cnn(C)c3)n2)ccc1CNC(=O)c1nc(C(C)(C)C)no1 . Its pIC50 was > 9.00

* * *

- MEASURED_ON: BTK (Homo sapiens (Human))
- ASSAY_NAME: In Vitro PD Assay in Human Whole Blood (pBTK assay)
- Type: cell-based
- EXPERIMENTAL_PARAMETERS: human heparinized whole blood, 37° C. for 30 min, total BTK capture and phosphotyrosine detection (ECL)
Below, each entry is listed with its recorded IC50.

Worked examples, 3 molecules total:
INSERT INTO results (smiles_repr, result_value) VALUES
  ('Cc1cc(-c2ncnc(Nc3cnn(C)c3)n2)c(F)cc1CNC(=O)c1nnn(C(C)(C)C)n1', '100 to 500 nM'),
  ('Cc1cc(-c2ncnc(Nc3cnn(C)c3)n2)ccc1CNC(=O)c1cc(C(C)(C)C)no1', '100 to 500 nM'),
  ('Cn1ccc(Nc2ncnc(-c3ccc4c(c3)CN(CC(F)(F)F)CC[C@H]4NC(=O)c3nc(C(C)(C)C)co3)n2)n1', '500 to 10000 nM');

# context switch: different molecule, same IC50
Measured IC50 of Cc1cc(-c2ncnc(Nc3cnn(C)c3)n2)c(F)cc1CNC(=O)c1noc(C2(CF)CC2)n1 : 100 to 500 nM

* * *

Measured IC50, listed per entry.
- MEASURED_ON: BTK (Homo sapiens (Human))
- ASSAY_NAME: In Vitro BTK Kinase Assay: BTK-POLYGAT-LS ASSAY
- Type: biochemical
- EXPERIMENTAL_PARAMETERS: fluorescein-labeled polyGAT peptide 100 nM, BTK enzyme 0.25 nM, 30 minutes, TRF

Some entries whose results are on file:
INSERT INTO results (smiles_repr, measured_on, result_value) VALUES
  ('Cn1cc(Nc2ncnc(-c3ccc(CNC(=O)c4nc(C(C)(C)C)no4)c(C(F)(F)F)c3)n2)cn1', 'BTK (Homo sapiens (Human))', '< 1 nM'),
  ('Cn1cc(Nc2ncnc(-c3cc4c(cc3F)[C@H](NC(=O)c3nc(C(C)(C)C)no3)CCCC4)n2)cn1', 'BTK (Homo sapiens (Human))', '< 1 nM'),
  ('Cn1cc(Nc2ncnc(-c3ccc4c(c3)CN(CC(F)(F)F)CC[C@H]4NC(=O)c3noc(C(C)(C)C)n3)n2)cn1', 'BTK (Homo sapiens (Human))', '< 1 nM'),
  ('Cc1c(CNC(=O)c2cnn(C(C)(C)C)c2)ccc(-c2ncnc(Nc3cnn(C)c3)n2)c1F', 'BTK (Homo sapiens (Human))', '< 1 nM'),
  ('Cn1cc(Nc2ncnc(-c3ccc4c(c3)CCCC[C@H]4NC(=O)c3nc(C(C)(C)C)no3)n2)cn1', 'BTK (Homo sapiens (Human))', '< 1 nM'),
  ('Cc1cc(-c2ncnc(Nc3cnn(C)c3)n2)c(F)cc1CNC(=O)c1coc(C(C)(C)C)n1', 'BTK (Homo sapiens (Human))', '< 1 nM'),
  ('Cc1cc(-c2ncnc(Nc3cnn(C)c3)n2)c(F)cc1CNC(=O)c1cc(C(C)(C)C)no1', 'BTK (Homo sapiens (Human))', '< 1 nM'),
  ('Cc1c(-c2ncnc(Nc3cnn(C)c3)n2)ccc([C@@H](C)NC(=O)c2nc(C(C)(C)C)no2)c1Cl', 'BTK (Homo sapiens (Human))', '1 to 10 nM'),
  ('Cn1ccc(Nc2ncnc(-c3ccc(CNC(=O)c4noc(C(C)(C)C)n4)c(Cl)c3)n2)n1', 'BTK (Homo sapiens (Human))', '1 to 10 nM'),
  ('Cn1cc(Nc2ncnc(-c3ccc(CNC(=O)c4noc(C(C)(C)C)n4)c(Cl)c3)n2)cn1', 'BTK (Homo sapiens (Human))', '< 1 nM');

Measured IC50, Cn1ccc(Nc2ncnc(-c3ccc4c(c3)CCCC[C@H]4NC(=O)c3noc(C(C)(C)CF)n3)n2)n1 : < 1 nM

Please fill in: IC50 reported for Cc1cc(-c2ncnc(Nc3cnn(C)c3)n2)ccc1CNC(=O)c1noc(C2(C)CC2)n1 = < 1 nM

Entry Cn1ccc(Nc2ncnc(-c3ccc(CNC(=O)c4noc(C(C)(C)C)n4)c(C(F)(F)F)c3)n2)n1 ; IC50 = 1 to 10 nM

Value of measured IC50 for the entry Cn1ccc(Nc2ncnc(-c3ccc(CNC(=O)c4nc(C(C)(C)C)no4)c(Cl)c3)n2)n1 : < 1 nM

The value of IC50 measured for the compound Cn1cc(Nc2ncnc(-c3ccc(CNC(=O)c4noc(C5(C)CC5)n4)c(Cl)c3F)n2)cn1 turned out to be < 1 nM

Hello, the source for this data is patent US10899753B2, in case you need it.
